# Tested on: Human adenocarcinoma cell line LoVo
# PROTOCOL NOTES: Cell Based Screen for Inhibitors of Raf Kinase, LoVo cells
# CONDITION INFO: Homo sapiens, 96 h, four days, SRB
Recorded IC50, one value per entry.
MEASURE NAME: IC50 (nM)

{"columns": ["SMILES TEXT", "UNITS TEXT", "RELATION OPERATOR", "TEST RESULT"],
 "data": [
  ["COC(=O)C1CCN(Cc2ccc(-c3ccc4c(Nc5ccc(Sc6nccn6C)c(Cl)c5)c(C#N)cnc4c3)nc2)CC1", "nM", "=", 25],
  ["Cn1ccnc1Sc1ccc(Nc2c(C#N)cnc3cc(-c4ccc(CN5CCN(CCO)CC5)cn4)ccc23)cc1Cl", "nM", "=", 36],
  ["Cn1ccnc1Sc1ccc(Nc2c(C#N)cnc3cc(-c4ccc(CN5CCOCC5)c(CN5CCOCC5)c4)ccc23)cc1Cl", "nM", "<", 5],
  ["CCOC(=O)C1CCN(c2ccc(-c3ccc4c(Nc5ccc(Sc6nccn6C)c(Cl)c5)c(C#N)cnc4c3)cn2)CC1", "nM", "=", 45.2],
  ["Cn1ccnc1Sc1ccc(Nc2c(C#N)cnc3cc(-c4ccc(CN5CCC(C(=O)O)CC5)cn4)ccc23)cc1Cl", "nM", "=", 330]
]}

The reported measurements were obtained from patent EP1268431B1.
